B1: HESX1 (parent)
chain: QKKDCVPLMKPHRPWADTCSSSGK

Variants of: B1
Experiment: protein stability index of a GFP-peptide fusion (GPS, HEK-293T) (PSI 1-6); higher = more stable;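 also: lentivirally expressed fusions sorted by FACS into six bins by GFP to DsRed ratio, PSI derived from sequencing read proportions per bin multiplied by bin number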
Conditions: c terminus: a fixed tail appended
Exercise: for every item that follows, state its recorded protein stability index.
Respond using a number only.

Problem: Reported protein stability index, variant `S20L` : ____
Solution: 2.61

Problem: Same lookup for `K2A` , please.
Solution: 3.27

Problem: Repeat for the following variant: `K24Y`
Solution: 1.98

Problem: Moving on to `K10G`
Solution: 3.47

Problem: Please give the result for `P14K` too.
Solution: 2.81

Problem: Now consider `P11R` .
Solution: 3.46

Problem: Thanks! And `K2G` ?
Solution: 3.06

Problem: Try the variant `Q1I`
Solution: 3.46

Problem: Similarly, `A16W` ?
Solution: 3.39

Problem: Also, `P11W` please.
Solution: 3.16

Problem: How about `M9P` ?
Solution: 3.51

Problem: Follow-up entry: `C19P`
Solution: 4.37

Problem: Now this one: `L8V`
Solution: 3.28

Problem: Please do the same for `Q1L` as well.
Solution: 2.01

Problem: One more variant: `W15Y`
Solution: 4.39

Problem: Another variant to look at: `S21W`
Solution: 2.79

Problem: Please give the result for `T18K` too.
Solution: 4.01

Problem: Now consider `K24L` .
Solution: 1.78

Problem: Now give it for `A16F` too.
Solution: 3.44

Problem: Thanks! And `L8H` ?
Solution: 2.31

Problem: Next: `K3V`
Solution: 3.47

Problem: Next variant: `T18F`
Solution: 2.35

Problem: For `P14N` then?
Solution: 2.72

Problem: Consider next the variant `R13N` in the same way.
Solution: 4.15

Problem: Again, but for `R13E`
Solution: 4.97

Problem: Note, next up: `C19T`
Solution: 3.82

Problem: Again, but for `S21M`
Solution: 2.58

Problem: Could you do the same for `S20D` , please?
Solution: 3.32

Problem: What about this variant? `K3Y`
Solution: 3.06

Problem: Follow-up item: `S20M`
Solution: 3.18

Problem: Here is the next variant: `S22K`
Solution: 3.69

Problem: And for `K10C` ?
Solution: 3.88

Problem: Similarly, `T18H` ?
Solution: 2.13

Problem: Next variant up: `S21R`
Solution: 2.56

Problem: // query: `S21D`
Solution: 3.24

Problem: Here is the next variant: `A16S`
Solution: 3.72

Problem: Try this variant too: `P14V`
Solution: 2.23

Problem: Follow-up item: `K10T`
Solution: 3.35

Problem: What do you get for `K24N` ?
Solution: 2.97

Problem: And what about the variant `S20C` ?
Solution: 3.03

Problem: One more variant: `A16H`
Solution: 3.98

Problem: And `W15K` ?
Solution: 4.92

Problem: What do you get for `D4V` ?
Solution: 2.17

Problem: # iterate: `C19Q`
Solution: 4.03

Problem: Field entry: `D17R`
Solution: 3.46

Problem: Do the same for `P14S` please
Solution: 3.1

Problem: `P14G` , same question.
Solution: 3.96

Problem: Same lookup for `K3P` , please.
Solution: 3.62

Problem: Same question for `K2V` please.
Solution: 3.12

Problem: Could you do the same for `T18C` , please?
Solution: 3.15

Problem: Entry `P11Y` please
Solution: 2.55

Problem: Check `Q1Y` too.
Solution: 2.45

Problem: Continue with `V6L`
Solution: 2.92

Problem: Can you check `K24W` next?
Solution: 1.98

Problem: Can you handle `S22V` next?
Solution: 2.78

Problem: Another variant: `K3H`
Solution: 3.66

Problem: Please do the same for `L8F` as well.
Solution: 3.14

Problem: Please answer likewise for `W15C`
Solution: 4.02

Problem: Ok, now `P7W`
Solution: 1.76

Problem: Do the same for `S21F` please
Solution: 2.44

Problem: Can you check `M9G` next?
Solution: 4.27

Problem: Another variant to look at: `M9C`
Solution: 3.76

Problem: Same for `S22P`
Solution: 3.68

Problem: Also check `D4S`
Solution: 2.92

Problem: Ok, now `P11T`
Solution: 4.68

Problem: // same read-out, input: `T18V`
Solution: 1.9

Problem: How about this variant: `K10Q`
Solution: 4.19

Problem: Another variant to look at: `K24G`
Solution: 3.62

Problem: Proceed to `W15E`
Solution: 5.37

Problem: Entry `M9Y` please
Solution: 3.2

Problem: Likewise for `P7Y` ?
Solution: 2.78

Problem: One more variant: `L8C`
Solution: 2.7

Problem: And for `K24P` ?
Solution: 3.18

Problem: And for `G23I` ?
Solution: 2.76

Problem: Would you mind doing `T18Y` as well?
Solution: 2.25

Problem: Next variant up: `Q1D`
Solution: 3.95

Problem: Also check `T18W`
Solution: 2.94

Problem: And `T18A` ?
Solution: 3.41
